# subject-of-test: PARK7 (Homo sapiens)
# Sequence (Q99497 whole entry): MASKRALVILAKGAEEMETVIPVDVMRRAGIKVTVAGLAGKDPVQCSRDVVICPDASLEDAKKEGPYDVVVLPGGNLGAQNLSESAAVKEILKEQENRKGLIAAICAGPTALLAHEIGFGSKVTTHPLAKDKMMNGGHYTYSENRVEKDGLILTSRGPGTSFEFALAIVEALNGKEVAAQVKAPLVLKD
# method-notes: High-throughput screen of the crude compound library, PARK7 fluorescence polarization (FP) assay with FP reagent JYQ-107
# Format: biochemical
# assay-context: 1.25 µM, crude compound library; read-out: HTS FP assay %Inhibition (1.25 µM)
Think of 90% as a floor: if inhibition at 1.25 µM stands on it or above, it is Yes; beneath it, No.

Past entries and their recorded results:
compound	group-label
Cc1oc(-c2cccs2)nc1C(=O)N1CCc2nc(NC(=O)[C@@H]3CCN(C#N)C3)sc2C1 [compound 263]	No
N#CN1CC[C@@H](C(=O)Nc2nc3c(s2)CN(C(=O)c2cnn(-c4ccc(Br)cc4)c2)CC3)C1 [Compound 219]	Yes
N#CN1CC[C@@H](C(=O)Nc2nc3c(s2)CN(C(=O)c2cc(C4CCCCC4)[nH]n2)CC3)C1 [Compound 164]	Yes
N#CN1CC[C@@H](C(=O)Nc2nc3c(s2)CN(C(=O)c2cccc(COc4cccc(F)c4)c2)CC3)C1 [Compound 110]	Yes

Evaluate Cn1nc(C(=O)N2CCc3nc(NC(=O)[C@@H]4CCN(C#N)C4)sc3C2)cc1-c1cccnc1 [compound 172] : inhibition at 1.25 µM at minimum 90%?
No

Evaluate Cc1n[nH]c(C)c1S(=O)(=O)N1CCC(C(=O)N2CCc3nc(NC(=O)[C@@H]4CCN(C#N)C4)sc3C2)CC1 [compound 120] : inhibition at 1.25 µM at minimum 90%?
No

Evaluate COc1ccc(C(=O)N2CCc3nc(NC(=O)[C@@H]4CCN(C#N)C4)sc3C2)cc1S(=O)(=O)N(C)CCc1cccnc1 [compound 290] : inhibition at 1.25 µM at minimum 90%?
No

Evaluate N#CN1CC[C@@H](C(=O)Nc2nc3c(s2)CN(C(=O)c2csc(CCc4ccccc4)n2)CC3)C1 [compound 300] : inhibition at 1.25 µM at minimum 90%?
No

Evaluate N#CN1CC[C@@H](C(=O)Nc2nc3c(s2)CN(C(=O)Cc2ccc(S(=O)(=O)N4CCOCC4)s2)CC3)C1 [compound 65] : inhibition at 1.25 µM at minimum 90%?
No

Evaluate Cn1cc(-c2ccc(C(=O)N3CCc4nc(NC(=O)[C@@H]5CCN(C#N)C5)sc4C3)o2)cn1 [compound 220] : inhibition at 1.25 µM at minimum 90%?
No

Evaluate Cc1oc(-c2ccco2)nc1CC(=O)N1CCc2nc(NC(=O)[C@@H]3CCN(C#N)C3)sc2C1 [compound 44] : inhibition at 1.25 µM at minimum 90%?
No

Evaluate Cc1ccc(S(=O)(=O)NCCc2ccc(F)cc2)cc1C(=O)N1CCc2nc(NC(=O)[C@@H]3CCN(C#N)C3)sc2C1 [compound 247] : inhibition at 1.25 µM at minimum 90%?
No

Evaluate N#CN1CC[C@@H](C(=O)Nc2nc3c(s2)CN(C(=O)C2CCCN2C(=O)c2ccncc2)CC3)C1 (some centres unmarked) [compound 206] : inhibition at 1.25 µM at minimum 90%?
No

Evaluate Cc1ccc(CN2C(=O)CCC2C(=O)N2CCc3nc(NC(=O)[C@@H]4CCN(C#N)C4)sc3C2)cc1 (some centres unmarked) [compound 254] : inhibition at 1.25 µM at minimum 90%?
No
